Hey, just so you know, these numbers are from the Immune Epitope Database (IEDB).

Biological target: HLA-A*03:01
Test: IEDB peptide-MHC binding, purified MHC/direct/fluorescence; filed as Kd, often an IC50 or EC50 that approximates it; bounds were set here for any values at or beyond the usual limits of such assays
Conditions: source organism: Vibrio cholerae
measure: pKd
pKd here: minus log base 10 of the concentration, concentration in moles per litre.

Give the measured pKd for RVHGATVFK
6.60

* * *

Biological target: HLA-A*26:01
Assay: IEDB peptide-MHC binding, purified MHC/direct/fluorescence; filed as Kd, often an IC50 or EC50 that approximates it; bounds were set here for any values at or beyond the usual limits of such assays
Settings: source organism: Vibrio vulnificus YJ016
measure: Kd

Return reported Kd. Input sequence: SVFELSNFA
≥ 20 µM

* * *

Biological target: HLA-B*15:01
Test: IEDB peptide-MHC binding, purified MHC/direct/fluorescence; filed as Kd, often an IC50 or EC50 that approximates it; bounds were set here for any values at or beyond the usual limits of such assays
Details: source organism: Vibrio parahaemolyticus AQ3810
measure: Kd (nM)
State the answer as a number, implicitly in nM.

Quick one: give measured Kd for EASTWLDIF
174

* * *

Consider the following sequences; for each one, report its Kd.
Target: HLA-B*54:01
Assay: IEDB peptide-MHC binding, purified MHC/competitive/radioactivity; filed as Kd, often an IC50 or EC50 that approximates it; bounds were set here for any values at or beyond the usual limits of such assays
Settings: source organism: Vaccinia virus WR
Answer in µM, number only, no unit symbol.

Find the measured Kd of LPNVDLTTM and report it.
0.717

Annotate the sequence LMIFISSFLL with its measured Kd.
3.24

Consider the sequence KPAMSTYSDI . State its measured Kd.
9.87

Tell me Kd reported for VPTNDHIPVV
0.000661

Please report Kd for the following sequence: SPAHLINKLL
2.96

* * *

Target: HLA-A*69:01
Test: IEDB peptide-MHC binding, purified MHC/direct/fluorescence; filed as Kd, often an IC50 or EC50 that approximates it; bounds were set here for any values at or beyond the usual limits of such assays
Conditions: source organism: Mammarenavirus juninense
pKd: −log10 of the molar value.
measure: pKd

Supply recorded pKd for GKLDPTNTL here.
≤ 4.70

* * *

Biological target: HLA-A*02:19
Experiment: IEDB peptide-MHC binding, purified MHC/competitive/fluorescence; filed as Kd, often an IC50 or EC50 that approximates it; bounds were set here for any values at or beyond the usual limits of such assays
Settings: source organism: Escherichia coli E22
pKd: −log10 of the molar value.
measure: pKd

State its pKd: YQTYVSPGA
≤ 4.70

* * *

Biological target: HLA-B*15:01
Test: IEDB peptide-MHC binding, purified MHC/direct/fluorescence; filed as Kd, often an IC50 or EC50 that approximates it; bounds were set here for any values at or beyond the usual limits of such assays
Conditions: source organism: Cryptosporidium parvum Iowa II
pKd: −log10 of the molar value.
Give measured pKd for each item. Keep answers brief.

# return recorded pKd for input MPMSMPIPM
≤ 4.70

Could you please provide reported pKd for LPLESCFGV ? Thanks!
≤ 4.70

* * *

Molecular target: HLA-C*04:01
Assay: IEDB peptide-MHC binding, purified MHC/competitive/fluorescence; filed as Kd, often an IC50 or EC50 that approximates it; bounds were set here for any values at or beyond the usual limits of such assays
Settings: source organism: dengue virus type 2
pKd: −log10 of the molar value.
measure: pKd

Note down pKd recorded for SEMGANFKA
≤ 5.30
